meta.source: patent US10173991B2

Target: Endothelial lipase (EL) (Homo sapiens (Human), UniProt Q9Y5X9)
Sequence (Q9Y5X9 21-500): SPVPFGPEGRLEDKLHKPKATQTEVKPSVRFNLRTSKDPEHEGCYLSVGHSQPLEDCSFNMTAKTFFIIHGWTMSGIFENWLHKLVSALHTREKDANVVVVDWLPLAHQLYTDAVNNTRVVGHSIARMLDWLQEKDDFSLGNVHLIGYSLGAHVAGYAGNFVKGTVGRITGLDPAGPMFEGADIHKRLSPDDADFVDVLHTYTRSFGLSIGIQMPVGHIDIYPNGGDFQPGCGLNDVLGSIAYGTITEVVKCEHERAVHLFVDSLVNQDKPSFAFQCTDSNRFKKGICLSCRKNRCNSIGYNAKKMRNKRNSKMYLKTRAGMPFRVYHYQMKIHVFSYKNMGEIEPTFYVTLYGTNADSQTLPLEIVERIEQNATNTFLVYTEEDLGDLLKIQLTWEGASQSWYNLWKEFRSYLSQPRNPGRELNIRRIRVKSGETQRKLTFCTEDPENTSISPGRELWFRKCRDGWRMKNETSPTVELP
Assay: Endothelial lipase (EL) enzymatic assay with fluorescent substrate A10070 in DMPG vesicles
Type: biochemical
Details: EL from conditioned media of HT-1080 cells; 30 min preincubation at 37° C.
Measured pIC50 accompanies every entry in the list below.
pIC50 here: minus log base 10 of the concentration, concentration in moles per litre.

Molecule	pIC50
COCCS(=O)(=O)C(C(=O)NCC(=O)NC1CC1)c1nc2cc(C(=O)N3CCOCC3)c(F)cc2s1 (stereo not shown) [Example 425]	6.69
O=C(CCc1ccccc1)Nc1ccc(-c2cc3sc(C(C(=O)NCC(=O)NC4CC4)S(=O)(=O)CCC(F)(F)F)nc3cc2F)cc1 (stereo not shown) [Example 575]	9.05
Cc1ncc(-c2cc3sc(C(C(=O)NCC(=O)NC4CC4)S(C)(=O)=O)nc3cc2OC(F)F)cn1 (stereo not shown) [Example 601]	7.72
COCCS(=O)(=O)C(C(=O)NCC(=O)NC1CC1)c1nc2ccc(-c3ccc(C(=O)N(C)C4CC4)cc3)cc2s1 (stereo not shown) [Example 393]	7.48
CS(=O)(=O)C(C(=O)NCC(=O)NC1CC1)c1nc2cc(F)c(-c3ccc(NC(=O)OCc4ccccc4)cc3)cc2s1 (stereo not shown) [Example 1]	8.52
CC(C)OCCNC(=O)CNC(=O)C(c1nc2ccc(-c3ccc4c(c3)CNC4=O)cc2s1)S(C)(=O)=O (stereo not shown) [Example 287]	8.54

Query string: State its pIC50: CS(=O)(=O)C(C(=O)NCC(=O)NC1CC1)c1nc2cc(F)c(-c3ccc(-n4ccnc4)cc3)cc2s1 (stereo not shown) [Example 579]
Result string: 8.22
